In this section, each of the compounds is paired with its reported IC50.
- Test system: DU-145
- protocol_notes: Cell growth inhibition assay, prostate cancer cell line DU-145
- Format: cell-based
- measurement_context: Homo sapiens, DU-145 prostate cancer cell line
Numbers only here, please. The scale is µM.

Recorded IC50, per entry:
{"compound": "CCOc1cc(OC(F)(F)F)cc(C(C)(C)c2cc(Cl)cc(NC(=O)c3cc4ccc(NS(C)(=O)=O)cc4[nH]3)c2)c1 [Example 59]", "IC50 (µM)": 0.039}
{"compound": "CC(C)Oc1cc(CN2CCOCC2)cc(C(C)(C)c2cc(Cl)cc(NC(=O)c3cc4cc(NS(C)(=O)=O)ccc4s3)c2)c1 [Example 126]", "IC50 (µM)": 0.11}
{"compound": "O=C(Nc1cc(Cl)cc(-c2ccc(F)cc2F)c1)c1cc2cc(NS(=O)(=O)C3CCOC3)ccc2s1 (stereo not shown) [Example 327]", "IC50 (µM)": 0.034}

What does the record list as IC50 for CC(C)(c1cc(Cl)cc(NC(=O)c2cc3cc(NS(C)(=O)=O)ccc3s2)c1)c1cc(OC(F)(F)F)ccc1F [Example 62] ?
0.016

====

- Tested on: LNCaP
- protocol_notes: Cell growth inhibition assay, prostate cancer cell line LNCaP (medium with 10 ng/mL IL-6)
- Assay type: cell-based
- measurement_context: Homo sapiens, medium supplemented with 10 ng/mL of IL-6, 10,000 cells/well
Rule: measured IC50 below 0.02 µM gets Condition met; anything equal to or greater than 0.02 µM gets Condition not met.

Recorded results for 4 molecules are shown here.
{"molecule": "CN(c1ccc2cc(C(=O)Nc3cccc(-c4ccccc4C(F)(F)F)c3)[nH]c2c1)S(C)(=O)=O", "answer_label": "Condition not met"}
{"molecule": "O=C(Nc1cc(Cl)cc(-c2ccc(F)cc2F)c1)c1cc2cc(NS(=O)(=O)C3CCOC3)c(F)cc2s1 (stereo not drawn)", "answer_label": "Condition met"}
{"molecule": "CS(=O)(=O)Nc1ccc2c(c1)NC(C(=O)Nc1cccc(-c3ccc(F)cc3F)c1)C2 (stereo not drawn)", "answer_label": "Condition not met"}
{"molecule": "CS(=O)(=O)Nc1cc2cc(C(=O)Nc3cc(Cl)cc(C4(c5ccc(Cl)cc5)CC4)c3)sc2cc1Cl", "answer_label": "Condition met"}

Quick check: does COC(=O)c1ccc(Cl)c(-c2ccnc(NC(=O)c3cc4ccc(NS(C)(=O)=O)cc4[nH]3)c2)c1 have IC50 under 0.02 µM?
Condition not met

Quick check: does O=C(O)COc1ccc2cc(C(=O)Nc3cccc(-c4ccc(F)cc4F)c3)[nH]c2c1 have IC50 under 0.02 µM?
Condition not met

Quick check: does CS(=O)(=O)Nc1ccc2cc(C(=O)Nc3cc(-c4ccc(F)cc4F)ccn3)[nH]c2c1 have IC50 under 0.02 µM?
Condition not met

Quick check: does CC(C)Oc1cc(OC(F)(F)F)cc(C(C)(C)c2cc(Cl)cc(NC(=O)c3cc4cc(NS(=O)(=O)c5ccn(C)n5)ccc4s3)c2)c1 have IC50 under 0.02 µM?
Condition not met

Quick check: does CN(c1ccc(Cl)cc1)c1cc(Cl)cc(NC(=O)c2cc3cc(NS(C)(=O)=O)ccc3s2)c1 have IC50 under 0.02 µM?
Condition not met

====

- subject_of_test: STAT3 (Homo sapiens)
- Construct: plasmid pSTAT3-TA-luc), which contains a stably operating STAT3 promoter; endogenous in cells
- Sequence (P40763 whole entry): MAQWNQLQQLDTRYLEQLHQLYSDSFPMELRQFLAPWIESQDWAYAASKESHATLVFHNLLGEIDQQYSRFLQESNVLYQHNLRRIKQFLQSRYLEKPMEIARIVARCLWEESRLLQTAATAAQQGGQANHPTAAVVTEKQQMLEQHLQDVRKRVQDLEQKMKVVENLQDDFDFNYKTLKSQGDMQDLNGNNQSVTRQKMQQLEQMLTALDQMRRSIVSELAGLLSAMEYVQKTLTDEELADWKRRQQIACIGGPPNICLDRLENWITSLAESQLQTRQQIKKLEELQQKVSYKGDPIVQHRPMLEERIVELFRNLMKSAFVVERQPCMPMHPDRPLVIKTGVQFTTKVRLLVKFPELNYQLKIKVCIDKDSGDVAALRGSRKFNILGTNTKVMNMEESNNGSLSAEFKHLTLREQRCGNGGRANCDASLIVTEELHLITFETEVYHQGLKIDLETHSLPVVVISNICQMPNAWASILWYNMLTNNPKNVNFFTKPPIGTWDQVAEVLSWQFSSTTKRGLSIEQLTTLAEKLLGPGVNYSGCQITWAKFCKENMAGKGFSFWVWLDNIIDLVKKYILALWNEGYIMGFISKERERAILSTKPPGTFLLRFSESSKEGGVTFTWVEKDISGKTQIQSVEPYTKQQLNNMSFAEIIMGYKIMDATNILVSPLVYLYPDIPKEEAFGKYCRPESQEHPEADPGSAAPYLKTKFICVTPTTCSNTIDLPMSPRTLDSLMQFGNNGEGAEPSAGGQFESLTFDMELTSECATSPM
- protocol_notes: STAT3 reporter gene assay (luciferase), LNCaP stable cell line (pSTAT3-TA-luc), IL-6 stimulation
- Assay type: cell-based
Rule: measured IC50 below 0.3 µM gets TRUE; anything equal to or greater than 0.3 µM gets FALSE.

Recorded results for 3 molecules are shown here.
{"molecule": "COc1ccc(F)c(-c2ccnc(NC(=O)c3cc4ccc([N+](=O)[O-])cc4[nH]3)c2)c1 [Example 297]", "answer_label": "FALSE"}
{"molecule": "COc1cc(OC(F)(F)F)cc(C(C)(C)c2cc(Br)cc(NC(=O)c3cc4cc(NS(C)(=O)=O)ccc4s3)c2)c1 [Example 36]", "answer_label": "TRUE"}
{"molecule": "Cn1c(C(=O)Nc2cccc(-c3ccccc3C(F)(F)F)c2)cc2ccc([N+](=O)[O-])cc21 [Example 249]", "answer_label": "FALSE"}

Quick check: does CS(=O)(=O)Nc1cc2sc(C(=O)Nc3cc(Cl)cc(Oc4ccc(Cl)cc4)c3)cc2cc1Cl [Example 485] have IC50 under 0.3 µM?
TRUE

====

In this section, each of the compounds is paired with its reported IC50.
- Test system: HEL92.1.7
- protocol_notes: Cell growth inhibition assay, blood cancer cell line HEL92.1.7
- Format: cell-based
- measurement_context: Homo sapiens, HEL 92.1.7, HEL92.1.7 blood cancer cell line

Recorded IC50, per entry:
{"item_smiles": "CC(C)Oc1cc(CN2CCN(C3COC3)CC2)cc(C(C)(C)c2cc(Cl)cc(NC(=O)c3cc4cc(NS(C)(=O)=O)ccc4s3)c2)c1", "subject_of_test": "HEL92.1.7", "IC50": "> 1.1 µM"}
{"item_smiles": "CC(C)Oc1cc(OC(F)(F)F)cc(C(C)(C)c2cc(Cl)cc(NC(=O)c3cc4c(N5CCOCC5)c(NS(C)(=O)=O)ccc4s3)c2)c1", "subject_of_test": "HEL92.1.7", "IC50": "> 1.1 µM"}

Turning now to a further record.
What does the record list as IC50 for CC(C)(c1cc(Cl)cc(NC(=O)c2cc3cc(NS(C)(=O)=O)ccc3s2)c1)N1CCCCC1 ?
> 1.1 µM

====

In this section, each of the compounds is paired with its reported log10 of IC50.
- System: LNCaP
- protocol_notes: Cell growth inhibition assay, prostate cancer cell line LNCaP (medium with 10 ng/mL IL-6)
- Type: cell-based
- measurement_context: Homo sapiens, medium supplemented with 10 ng/mL of IL-6, 10,000 cells/well
On a log10 scale: recorded IC50, unit µM.

Recorded log10 of IC50, per entry:
{"compound": "CC(C)(c1ccc(F)cc1)c1cc(Br)cc(NC(=O)c2cc3ccc(NS(C)(=O)=O)cc3[nH]2)c1", "subject_of_test": "LNCaP", "log10 of IC50": -0.26}
{"compound": "CC(C)Oc1cc(Oc2cc(Cl)cc(NC(=O)c3cc4cc(NS(C)(=O)=O)ccc4s3)c2)cc(OC(F)(F)F)c1", "subject_of_test": "LNCaP", "log10 of IC50": -0.48}
{"compound": "COc1ccc(C(C)(C)c2cc(Cl)cc(NC(=O)c3cc4cc(NS(C)(=O)=O)ccc4s3)c2)c(OC)c1", "subject_of_test": "LNCaP", "log10 of IC50": -0.96}
{"compound": "CC(C)Oc1cc(OC(F)(F)F)cc(C(C)(C)c2cc(Cl)cc(NC(=O)c3cc4nc(NS(C)(=O)=O)cnc4s3)c2)c1", "subject_of_test": "LNCaP", "log10 of IC50": -0.44}
{"compound": "CN(c1cc2cc(C(=O)Nc3cc(Cl)cc(-c4ccc(F)cc4F)c3)sc2cc1F)S(C)(=O)=O", "subject_of_test": "LNCaP", "log10 of IC50": -2.10}

What does the record list as log10 of IC50 for Cc1cc(OC(C)C)cc(C(C)(C)c2cc(Cl)cc(NC(=O)c3cc4c(Br)c(NS(C)(=O)=O)ccc4s3)c2)c1 ?
0.40

What does the record list as log10 of IC50 for COc1cc(NC(=O)c2cc3ccc(N(C)S(C)(=O)=O)cc3[nH]2)cc(-c2ccc(F)cc2F)c1 ?
0.90

What does the record list as log10 of IC50 for CS(=O)(=O)Nc1ccc2sc(C(=O)Nc3cc(Cl)cc(Oc4cc(Cl)cc(Cl)c4)c3)cc2c1 ?
-0.51

What does the record list as log10 of IC50 for CC(C)Oc1cc(CN2CCS(=O)(=O)CC2)cc(C(C)(C)c2cc(Cl)cc(NC(=O)c3cc4cc(NS(C)(=O)=O)ccc4s3)c2)c1 ?
-0.01

What does the record list as log10 of IC50 for CS(=O)(=O)Nc1ccc2c(c1)NC(C(=O)Nc1cccc(-c3ccc(F)cc3C(F)(F)F)c1)C2 (stereo not shown) ?
0.99

====

- Test system: DU-145
- protocol_notes: Cell growth inhibition assay, prostate cancer cell line DU-145
- Format: cell-based
- measurement_context: Homo sapiens, DU-145 prostate cancer cell line
property_measured: IC50 (µM)
Numbers only here, please. The scale is µM.

{"item_smiles": "CS(=O)(=O)Nc1cc2cc(C(=O)Nc3cc(Cl)cc(Oc4ccc(F)c(F)c4)c3)sc2cc1Cl", "subject_of_test": "DU-145", "test_result": 0.008}
{"item_smiles": "CS(=O)(=O)Nc1ccc2sc(C(=O)Nc3cc(Cl)cc(Oc4cc(F)ccc4F)c3)cc2c1", "subject_of_test": "DU-145", "test_result": 0.16}
{"item_smiles": "CC(C)Oc1cc(OC(F)(F)F)cc(C(C)(C)c2cc(Cl)cc(NC(=O)c3cc4cc(NS(=O)(=O)C5CCS(=O)(=O)CC5)ccc4s3)c2)c1", "subject_of_test": "DU-145", "test_result": 0.063}
{"item_smiles": "CC#CCOc1cc(OC(F)(F)F)cc(C(C)(C)c2cc(Cl)cc(NC(=O)c3cc4cc(NS(C)(=O)=O)ccc4s3)c2)c1", "subject_of_test": "DU-145", "test_result": 0.003}
{"item_smiles": "CC(C)Oc1cc(OC(F)(F)F)cc(C(C)(C)c2cc(Cl)cc(NC(=O)c3cc4cc(NS(=O)(=O)N5CCOCC5)ccc4s3)c2)c1", "subject_of_test": "DU-145", "test_result": 0.045}
{"item_smiles": "C=CCOc1cc(OC(F)(F)F)cc(C(C)(C)c2cc(Cl)cc(NC(=O)c3cc4cc(NS(C)(=O)=O)ccc4s3)c2)c1", "subject_of_test": "DU-145", "test_result": 0.009}
{"item_smiles": "CS(=O)(=O)Nc1cc2cc(C(=O)Nc3cc(Cl)cc(Oc4ccc(F)c(Cl)c4)c3)sc2cc1Cl", "subject_of_test": "DU-145", "test_result": 0.005}
{"item_smiles": "CS(=O)(=O)Nc1cc2cc(C(=O)Nc3cc(Cl)cc(Oc4ccc(Cl)cc4)c3)sc2cc1Cl", "subject_of_test": "DU-145", "test_result": 0.01}
{"item_smiles": "CC(C)(c1cc(Cl)cc(NC(=O)c2cc3cc(NS(C)(=O)=O)ccc3s2)c1)c1ccc[nH]1", "subject_of_test": "DU-145", "test_result": 0.41}
{"item_smiles": "CS(=O)(=O)Nc1ccc2sc(C(=O)Nc3cc(Cl)cc(Oc4ccc(F)c(F)c4)c3)cc2c1", "subject_of_test": "DU-145", "test_result": 0.13}

What does the record list as IC50 for CC(C)Oc1cc(OC(F)(F)F)cc(C(C)(C)c2cc(Cl)cc(NC(=O)c3cc4cc(NS(=O)(=O)CCN5CCOCC5)ccc4s3)c2)c1 ?
0.027

What does the record list as IC50 for CS(=O)(=O)Nc1ccc2sc(C(=O)Nc3cc(Cl)cc(Oc4ccc(F)c(Cl)c4)c3)cc2c1 ?
0.11

What does the record list as IC50 for COc1cc(OC(F)(F)F)cc(C(C)(C)c2cc(F)cc(NC(=O)c3cc4cc(NS(C)(=O)=O)ccc4s3)c2)c1 ?
0.01

What does the record list as IC50 for CC(C)(c1cc(F)cc(NC(=O)c2cc3cc(NS(C)(=O)=O)ncc3s2)c1)c1cc(OC(F)(F)F)cc(OC(F)(F)C(F)F)c1 ?
0.047

Source of measurements: patent US10562912B2
